The measurements presented in this section are drawn from patent US20170158755A1.

Biological target: T1, recombinant laminin 411 (human, UniProt P07942 22-1786; P11047 34-1609, limits assumed)
T1 construct: also called LAMA4 in complex with its gamma1 and beta1 chains
T1 sequence (chain, as listed by the source limits assumed, chain 1 of 3): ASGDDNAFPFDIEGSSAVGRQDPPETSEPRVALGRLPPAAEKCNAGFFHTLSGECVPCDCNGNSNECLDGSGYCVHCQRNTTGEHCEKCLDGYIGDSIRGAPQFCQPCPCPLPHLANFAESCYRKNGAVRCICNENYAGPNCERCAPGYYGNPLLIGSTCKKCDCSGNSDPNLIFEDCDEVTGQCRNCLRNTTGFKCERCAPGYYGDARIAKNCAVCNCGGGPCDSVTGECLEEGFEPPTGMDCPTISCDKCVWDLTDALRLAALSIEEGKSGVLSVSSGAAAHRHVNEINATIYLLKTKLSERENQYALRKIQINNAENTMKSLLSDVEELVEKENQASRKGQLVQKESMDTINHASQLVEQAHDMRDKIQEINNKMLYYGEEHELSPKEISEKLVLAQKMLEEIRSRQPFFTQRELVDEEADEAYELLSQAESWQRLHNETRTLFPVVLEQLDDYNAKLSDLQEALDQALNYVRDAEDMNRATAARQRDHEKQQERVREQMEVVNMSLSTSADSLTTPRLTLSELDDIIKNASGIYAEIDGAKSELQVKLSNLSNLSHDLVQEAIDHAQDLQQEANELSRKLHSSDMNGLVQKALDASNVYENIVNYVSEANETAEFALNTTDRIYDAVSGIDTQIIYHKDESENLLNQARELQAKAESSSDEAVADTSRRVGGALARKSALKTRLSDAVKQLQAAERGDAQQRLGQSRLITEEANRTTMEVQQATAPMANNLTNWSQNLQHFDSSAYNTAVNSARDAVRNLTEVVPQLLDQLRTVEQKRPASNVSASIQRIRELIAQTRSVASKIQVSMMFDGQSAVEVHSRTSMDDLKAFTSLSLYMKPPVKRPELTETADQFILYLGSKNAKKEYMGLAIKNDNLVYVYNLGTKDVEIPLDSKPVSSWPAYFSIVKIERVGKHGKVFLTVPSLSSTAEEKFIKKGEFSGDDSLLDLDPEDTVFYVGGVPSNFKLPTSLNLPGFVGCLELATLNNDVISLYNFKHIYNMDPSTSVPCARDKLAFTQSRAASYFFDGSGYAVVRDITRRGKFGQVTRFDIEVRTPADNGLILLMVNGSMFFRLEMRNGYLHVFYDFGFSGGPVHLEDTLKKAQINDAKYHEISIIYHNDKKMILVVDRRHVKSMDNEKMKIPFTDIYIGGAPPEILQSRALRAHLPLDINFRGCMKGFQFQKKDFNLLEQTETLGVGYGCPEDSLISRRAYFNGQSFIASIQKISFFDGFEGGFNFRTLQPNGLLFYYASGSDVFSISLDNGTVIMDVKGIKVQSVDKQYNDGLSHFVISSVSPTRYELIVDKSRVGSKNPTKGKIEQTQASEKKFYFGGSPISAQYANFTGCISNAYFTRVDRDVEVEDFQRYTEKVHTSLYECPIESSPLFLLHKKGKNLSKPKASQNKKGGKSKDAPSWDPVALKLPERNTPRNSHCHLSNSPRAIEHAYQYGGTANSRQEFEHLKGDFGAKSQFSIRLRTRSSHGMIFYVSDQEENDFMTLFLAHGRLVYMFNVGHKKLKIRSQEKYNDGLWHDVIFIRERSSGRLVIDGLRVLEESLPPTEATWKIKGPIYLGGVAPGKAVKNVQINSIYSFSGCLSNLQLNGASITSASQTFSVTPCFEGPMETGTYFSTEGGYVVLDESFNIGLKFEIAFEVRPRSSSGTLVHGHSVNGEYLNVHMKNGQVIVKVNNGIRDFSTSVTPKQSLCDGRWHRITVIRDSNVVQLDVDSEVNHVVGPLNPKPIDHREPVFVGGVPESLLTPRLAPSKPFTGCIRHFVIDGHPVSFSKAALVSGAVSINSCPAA
T1 sequence (P07942 22-1786 limits assumed, chain 2 of 3): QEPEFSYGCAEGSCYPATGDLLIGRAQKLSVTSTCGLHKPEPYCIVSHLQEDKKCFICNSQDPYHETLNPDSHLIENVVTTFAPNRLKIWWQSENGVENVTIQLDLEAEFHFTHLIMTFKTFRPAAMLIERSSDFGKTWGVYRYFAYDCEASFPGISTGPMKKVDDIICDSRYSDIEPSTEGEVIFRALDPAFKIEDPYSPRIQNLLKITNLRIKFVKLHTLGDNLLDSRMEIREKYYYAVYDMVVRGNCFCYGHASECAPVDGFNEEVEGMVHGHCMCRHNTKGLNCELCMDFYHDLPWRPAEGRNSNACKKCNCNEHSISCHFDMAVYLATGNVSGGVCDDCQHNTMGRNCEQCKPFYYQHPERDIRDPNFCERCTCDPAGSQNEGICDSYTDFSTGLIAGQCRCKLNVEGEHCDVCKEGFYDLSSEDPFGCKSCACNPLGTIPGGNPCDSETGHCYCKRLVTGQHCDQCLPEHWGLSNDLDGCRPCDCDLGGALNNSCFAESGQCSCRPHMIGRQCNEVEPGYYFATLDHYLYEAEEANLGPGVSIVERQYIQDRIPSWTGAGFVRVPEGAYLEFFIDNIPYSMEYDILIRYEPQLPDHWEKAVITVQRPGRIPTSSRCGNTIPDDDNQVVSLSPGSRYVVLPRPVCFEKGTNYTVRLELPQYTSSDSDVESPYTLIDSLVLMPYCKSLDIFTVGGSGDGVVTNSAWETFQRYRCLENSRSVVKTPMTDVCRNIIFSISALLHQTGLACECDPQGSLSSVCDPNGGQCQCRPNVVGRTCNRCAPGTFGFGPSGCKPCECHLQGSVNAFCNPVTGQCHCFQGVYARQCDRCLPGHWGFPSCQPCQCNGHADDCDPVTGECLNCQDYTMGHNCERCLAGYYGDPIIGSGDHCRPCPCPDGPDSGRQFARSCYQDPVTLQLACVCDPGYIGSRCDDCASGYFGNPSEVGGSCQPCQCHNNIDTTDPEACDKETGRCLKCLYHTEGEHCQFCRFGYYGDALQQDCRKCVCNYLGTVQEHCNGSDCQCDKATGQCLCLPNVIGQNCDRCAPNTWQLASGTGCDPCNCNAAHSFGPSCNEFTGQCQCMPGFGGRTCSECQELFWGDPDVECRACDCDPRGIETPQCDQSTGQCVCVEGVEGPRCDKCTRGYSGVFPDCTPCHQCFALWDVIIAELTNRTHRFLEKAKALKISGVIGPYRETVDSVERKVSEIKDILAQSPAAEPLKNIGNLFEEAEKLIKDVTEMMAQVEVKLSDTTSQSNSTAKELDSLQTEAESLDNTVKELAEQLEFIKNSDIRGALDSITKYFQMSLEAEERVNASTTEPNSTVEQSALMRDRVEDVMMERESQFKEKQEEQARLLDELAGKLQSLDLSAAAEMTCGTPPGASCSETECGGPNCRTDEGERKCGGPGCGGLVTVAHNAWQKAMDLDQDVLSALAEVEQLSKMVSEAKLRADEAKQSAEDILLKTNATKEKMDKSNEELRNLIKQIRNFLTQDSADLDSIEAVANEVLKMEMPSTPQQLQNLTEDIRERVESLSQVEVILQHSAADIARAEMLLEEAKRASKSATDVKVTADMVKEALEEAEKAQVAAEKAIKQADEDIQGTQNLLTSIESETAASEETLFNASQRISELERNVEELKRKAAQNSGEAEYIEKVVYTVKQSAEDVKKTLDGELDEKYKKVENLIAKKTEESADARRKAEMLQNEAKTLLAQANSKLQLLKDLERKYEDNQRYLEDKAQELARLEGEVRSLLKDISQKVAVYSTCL
T1 sequence (P11047 34-1609 limits assumed, chain 3 of 3): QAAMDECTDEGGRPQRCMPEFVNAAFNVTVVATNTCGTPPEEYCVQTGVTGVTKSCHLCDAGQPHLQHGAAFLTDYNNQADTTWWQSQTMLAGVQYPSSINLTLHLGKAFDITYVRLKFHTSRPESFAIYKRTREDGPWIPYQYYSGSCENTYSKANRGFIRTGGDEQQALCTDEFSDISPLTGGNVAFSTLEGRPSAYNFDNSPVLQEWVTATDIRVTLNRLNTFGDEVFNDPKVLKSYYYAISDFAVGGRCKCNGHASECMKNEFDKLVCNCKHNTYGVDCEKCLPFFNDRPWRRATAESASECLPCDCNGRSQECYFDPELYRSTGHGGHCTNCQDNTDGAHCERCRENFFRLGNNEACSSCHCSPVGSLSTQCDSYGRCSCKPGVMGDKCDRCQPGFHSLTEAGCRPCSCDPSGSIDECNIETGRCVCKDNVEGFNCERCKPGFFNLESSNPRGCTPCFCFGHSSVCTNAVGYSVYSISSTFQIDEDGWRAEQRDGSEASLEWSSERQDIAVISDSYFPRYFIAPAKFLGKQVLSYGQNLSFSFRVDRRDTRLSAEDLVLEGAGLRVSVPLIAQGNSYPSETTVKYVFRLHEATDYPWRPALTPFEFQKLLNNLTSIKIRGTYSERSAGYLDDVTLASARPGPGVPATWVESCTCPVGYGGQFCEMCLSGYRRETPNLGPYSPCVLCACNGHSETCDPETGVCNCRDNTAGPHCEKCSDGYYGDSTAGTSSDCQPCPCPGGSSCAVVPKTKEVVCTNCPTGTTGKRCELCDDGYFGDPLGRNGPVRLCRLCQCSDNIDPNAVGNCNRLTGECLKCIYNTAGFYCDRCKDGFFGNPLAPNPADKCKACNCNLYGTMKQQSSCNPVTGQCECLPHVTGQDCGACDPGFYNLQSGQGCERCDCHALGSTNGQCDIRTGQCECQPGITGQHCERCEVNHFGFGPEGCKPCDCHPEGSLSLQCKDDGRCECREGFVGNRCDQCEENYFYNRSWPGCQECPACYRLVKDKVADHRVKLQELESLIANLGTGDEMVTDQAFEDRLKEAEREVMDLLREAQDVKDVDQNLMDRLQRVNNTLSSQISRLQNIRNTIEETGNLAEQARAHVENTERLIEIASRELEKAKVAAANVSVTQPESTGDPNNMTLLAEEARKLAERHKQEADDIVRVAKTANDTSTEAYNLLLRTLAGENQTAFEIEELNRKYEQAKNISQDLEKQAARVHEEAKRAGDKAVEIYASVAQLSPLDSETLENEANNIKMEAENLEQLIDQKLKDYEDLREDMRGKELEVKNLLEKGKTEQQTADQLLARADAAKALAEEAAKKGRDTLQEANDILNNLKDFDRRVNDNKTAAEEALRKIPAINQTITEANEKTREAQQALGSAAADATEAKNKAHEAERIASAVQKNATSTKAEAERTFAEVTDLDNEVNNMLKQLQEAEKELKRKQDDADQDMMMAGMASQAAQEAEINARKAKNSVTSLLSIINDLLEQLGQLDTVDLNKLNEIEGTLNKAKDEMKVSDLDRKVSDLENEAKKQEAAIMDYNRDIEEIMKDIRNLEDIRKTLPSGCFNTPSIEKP
Test: flow cytometric blocking assay; antibody pre-incubated with 650-labeled laminin 411; blocked partner: human MCAM on CHO cells; MFI

BINDER	binding result
humanized 19C12 antibody H2L4 (antibody, V domains shown, Intact humanized IgG (human Fc); also called VHv2/VLv4) VH: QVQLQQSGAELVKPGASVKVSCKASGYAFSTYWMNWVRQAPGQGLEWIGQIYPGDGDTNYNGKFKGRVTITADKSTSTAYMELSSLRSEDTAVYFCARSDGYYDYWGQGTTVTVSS VL: NIVLTQSPASLAVSLGERATISCRASESVDSYGTSFMHWYQQKPGQPPKLLISLASSLESGVPARFSGSGSGTDFTLTISPVEAEDAATYYCQQNNEDPPTFGAGTKLEIKR	binds
humanized 19C12 antibody H3L6 (antibody, V domains shown, Intact humanized IgG (human Fc); also called VHv3/VLv6) VH: EVQLQQSGAELVKPGASVKVSCKASGYAFSTYWMNWVRQAPGQGLEWIGQIYPGDGDTNYNGKFKGRVTITADKSTSTAYMELSSLRSEDTAVYFCARSDGYYDYWGQGTTVTVSS VL: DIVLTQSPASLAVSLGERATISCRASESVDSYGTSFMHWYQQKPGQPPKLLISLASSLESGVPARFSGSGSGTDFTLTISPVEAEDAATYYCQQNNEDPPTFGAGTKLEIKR	binds
humanized 19C12 antibody H2L3 (antibody, V domains shown, Intact humanized IgG (human Fc); also called VHv2/VLv3; Hu19C12 H2L3) VH: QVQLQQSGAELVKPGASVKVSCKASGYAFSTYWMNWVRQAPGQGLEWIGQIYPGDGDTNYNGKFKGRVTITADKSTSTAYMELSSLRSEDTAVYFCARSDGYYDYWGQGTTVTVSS VL: NIVLTQSPASLAVSLGERATISCRASESVDSYGTSFMHWYQQKPGQPPKLLICLASSLESGVPARFSGSGSRTDFTLTIDPVEAEDAATYYCQQNNEDPPTFGAGTKLEIKR	binds
